tested on: OVCAR-3; test: Growth inhibition of human OVCAR-3 cells; format: functional
metric: GI50 (nM)
Number in nM, nothing else.

Please review the following examples before continuing.
chem-smiles	target	GI50, nM
CCCCCCCCC/C=C(/C)C[C@]1(C)C[C@H](C)[C@@H](CC(=O)O)OO1	OVCAR-3	980
COc1cccc2c1C(=O)c1c(O)c3c(c(O)c1C2=O)C[C@@](O)(C(=O)CO)C[C@@H]3O[C@H]1C[C@H](N)[C@H](O)[C@H](C)O1	OVCAR-3	120

# get_value(readout='GI50', item= CCCCCCCC/C=C(/C)C[C@]1(C)C[C@H](C)[C@@H](CC(=O)O)OO1 )
600
